Molecular target: Beta-2 adrenergic receptor (Mus musculus)
Experiment: Ki value was determined by accumulation of c-AMP in S-49 mouse lymphoma cells (Beta2).
measurement-label: Ki (µM)

Before answering, review these 6 worked examples.
CC(CCCCC(=O)Nc1ccc(C(F)(F)F)cc1)NCC(O)COc1cccc2ccccc12 (stereo not given) = 78
Cc1ccc(NC(=O)CCCC[C@H](C)NC[C@H](O)COc2cccc3ccccc23)cc1 = 41
Cc1ccc(NC(=O)CCCC[C@H](C)NC[C@@H](O)COc2cccc3ccccc23)cc1 (racemic) = 195
C[C@@H](CCCCC(=O)Nc1ccc(C(F)(F)F)cc1)NC[C@H](O)COc1cccc2ccccc12 = 39
CC(=O)Nc1ccc(OC[C@H](O)CN[C@H](C)CCCCC(=O)Nc2ccc(C)cc2)cc1 = 53.6
Cc1ccc(NC(=O)CCCC[C@@H](C)NC[C@H](O)COc2cccc3ccccc23)cc1 = 9.07

(P) C[C@H](CCCCC(=O)Nc1ccc(C(F)(F)F)cc1)NC[C@@H](O)COc1cccc2ccccc12
(Q) CC(=O)Nc1ccc(OCC(O)CNC(C)CCCCC(=O)Nc2ccc(C(F)(F)F)cc2)cc1 (stereo not given)
(R) Cc1ccc(NC(=O)CCCCC(C)NCC(O)COc2cccc3ccccc23)cc1 (stereo not given)
(S) CC(=O)Nc1ccc(OC[C@@H](O)CN[C@@H](C)CCCCC(=O)Nc2ccc(C(F)(F)F)cc2)cc1
input: Sort these molecules on Ki so the largest reading comes first. Sort the labels as requested; that list is your answer.
output: P, R, S, Q
(P: 130 µM, R: 43.3 µM, S: 2.85 µM, Q: 0.39 µM)

====

Target: Beta-2 adrenergic receptor (Mus musculus)
Test: Ki value was determined by accumulation of c-AMP in S-49 mouse lymphoma cells (Beta2).
pKi: −log10 of the molar value.
measurement-label: pKi

Before answering, review these 4 worked examples.
CC(=O)Nc1ccc(OC[C@H](O)CN[C@@H](C)CCCCC(=O)Nc2ccc(C(F)(F)F)cc2)cc1 (mixture of isomers) = 4.21
CC(=O)Nc1ccc(OCC(O)CNC(C)CCCCC(=O)Nc2ccc(C)cc2)cc1 (stereo not given) = 5.93
CC(=O)Nc1ccc(OC[C@@H](O)CN[C@H](C)CCCCC(=O)Nc2ccc(C)cc2)cc1 = 6.09
C[C@H](CCCCC(=O)Nc1ccc(C(F)(F)F)cc1)NC[C@H](O)COc1cccc2ccccc12 = 4.34

(P) C[C@@H](CCCCC(=O)Nc1ccc(C(F)(F)F)cc1)NC[C@@H](O)COc1cccc2ccccc12 (racemic)
(Q) CC(=O)Nc1ccc(OC[C@H](O)CN[C@H](C)CCCCC(=O)Nc2ccc(C(F)(F)F)cc2)cc1
(R) CC(=O)Nc1ccc(OC[C@@H](O)CN[C@H](C)CCCCC(=O)Nc2ccc(C(F)(F)F)cc2)cc1
input: Task for the reader: rank each entry by its pKi, from the minimum upward. Sort the labels as requested; that list is your answer.
output: P, Q, R

====

Biological target: Beta-2 adrenergic receptor (Mus musculus, UniProt P18762)
Sequence (P18762 whole entry): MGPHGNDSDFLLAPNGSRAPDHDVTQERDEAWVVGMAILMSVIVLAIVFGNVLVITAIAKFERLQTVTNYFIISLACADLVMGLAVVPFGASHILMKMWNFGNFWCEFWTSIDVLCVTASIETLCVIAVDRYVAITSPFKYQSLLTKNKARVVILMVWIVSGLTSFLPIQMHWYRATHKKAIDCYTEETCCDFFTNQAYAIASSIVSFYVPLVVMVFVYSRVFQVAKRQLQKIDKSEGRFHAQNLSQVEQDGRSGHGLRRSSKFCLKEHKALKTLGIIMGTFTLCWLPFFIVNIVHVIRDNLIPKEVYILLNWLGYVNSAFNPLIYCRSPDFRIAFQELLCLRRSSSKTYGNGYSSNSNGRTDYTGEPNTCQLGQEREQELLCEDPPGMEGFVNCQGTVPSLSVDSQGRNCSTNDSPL
Test: Ki value was determined by accumulation of c-AMP in S-49 mouse lymphoma cells (Beta2).
measurement-label: Ki (µM)

CC(=O)Nc1ccc(OC[C@@H](O)CN[C@@H](C)CCCCC(=O)Nc2ccc(C)cc2)cc1 = 15.6

(1) CC(=O)Nc1ccc(OC[C@H](O)CN[C@@H](C)CCCCC(=O)Nc2ccc(C)cc2)cc1
(2) Cc1ccc(NC(=O)CCCC[C@@H](C)NC[C@@H](O)COc2cccc3ccccc23)cc1
input: Please indicate which has the smaller reported Ki: 1 , or 2 . Write down the label of the entry you select.
output: 1
